- System: Plasmodium falciparum
- procedure_summary: Primary screen in NF54 nanoGlo assay, in single point, at 2uM, 72h; a lower Z score goes with more inhibition
- Format: functional, Erythrocyte
- condition_description: timepoint 72 hour
Hit rate of the full screen: of about 150,000 compounds, about 540 (0.36%) showed an effect of 50% or more. The sample holds strong results, similar compounds and a random draw of the others, so the mix is not that of the screen.
Assign class by Z score: not lower than 0.4 means class 1; lower than 0.4 means class 0.

// below: answered compounds
# chem_smiles, assigned_label
rows = [
    ("CN1CCC(Oc2cc(NC(=O)c3cscn3)ccn2)CC1", "class 1"),
    ("CCc1cc(N2CCCO2)nc(-c2ccncc2)n1", "class 0"),
    ("CC(C)C(=O)NCC(=O)N1CC[C@@]2(CCCN(CCCc3ccccc3)C2)C1", "class 1"),
]

Kindly determine if Z score recorded for Cc1cccc(N2CCO[C@@H](CF)C2)n1 is above or exactly 0.4.
class 0

Kindly determine if Z score recorded for C[C@@H]1CC[C@H](CO)N1C(=O)Cc1cccc(C(F)(F)F)n1 is above or exactly 0.4.
class 0
